Molecular target: Grb2 SH2 (UniProt P62993)
Assay: SH2 binding enrichment of the phosphorylated peptide, bacterial display (enrichment ratio); higher = better substrate or ligand; peptides without Tyr show the background;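 further: peptide library displayed on the E. coli surface as eCPX fusions, selected cells deep-sequenced, score is each peptide's frequency after selection divided by its frequency in the input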
OBSERVED_PROPERTY: SH2 binding enrichment

1 = CWAVKYLQMVG [AVPR2_Y117_R113W]
2 = TVSSDYLHPQF [CCPG1_Y569_F566S_YF]
3 = CKRQFYLYKGK [RSPO4_Y112]
# desc sort on SH2 binding enrichment across 3 sequences Please list each label once, in the requested order.
3, 1, 2

P = NVQIVYKPVDL [MAPT_Y627_S622N]
Q = KVKPIYLHTQG [AR_Y916_F917L]
R = PFTRNYFVQAV [CYBA_Y87_R90Q_YF]
Hi! Can you put these in order of SH2 binding enrichment, lowest number first? Please list each label once, in the requested order.
R, P, Q
(R: 0.634, P: 0.982, Q: 1.71)

1 = LLKAGYHGVLR [TTPA_Y100]
2 = ENKGVYVLMSG [IVD_Y277]
3 = SFCFRYRCAAR [SUMF1_Y344_YF]
Hi! Can you put these in order of SH2 binding enrichment, lowest number first? Please list each label once, in the requested order.
3, 2, 1

1 = EYQKKYSDADI [CKAP5_Y1860_K1857Q]
2 = LINPKYSVEEE [PCDH19_Y27_L25P]
Select the item with the higher value of SH2 binding enrichment from the options 1 and 2 listed. API: response body contains the label of the selected item.
2
(2: 1.92, 1: 1)
